The reader will find reported %Inh values listed item by item below.
test system: PIP5K1A; details: concentration: 1 μM, replicates: in singlicate; n = 1;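 also: KINOMEscan kinase panel screen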
Reported Property: %Inh

> print(dat)
                                   compound  result
1  COc1ccc(-c2coc3ccc(-c4nnc(SCc5cccc(C#N)c5)o4)cc23)cc1      0%
2  O=C(Nc1ccc2c(c1)OCO2)NC1CCN(c2ccnc(NCc3ccc(F)cc3)n2)CC1 [GSK1379859]      0%
3  CN1C(=O)C(Nc2ccccc2)=C(c2ccccc2)C1=O [SB-300079]     42%
4  COC(=O)c1c(-c2ccccc2)c2cc(C)ccc2c(=O)n1Cc1ccccc1     13%
5  Nc1nc(-c2ccccc2F)c(-c2ccnc3ccccc23)s1 [GW560459]     13%

====

tested on: FGFR2; conditions: concentration: 1 μM, replicates: in singlicate; n = 1
Reported Property: %Inh (%)

> print(dat)
                                    compound  reading.unit  recorded.number
 1  COc1ccc(-c2coc3ccc(-c4nnc(SCc5cccc(C#N)c5)o4)cc23)cc1             %               13
 2  Cc1ccccc1COc1cc(-n2cnc3cc(Cl)ccc32)sc1C(N)=O             %                3
 3  Cc1cccc(-c2cc(-c3c[nH]nc3-c3ccccn3)ccn2)c1             %                0
 4        CCc1nc(-c2cccc(C)c2)c(-c2ccncc2)s1             %                0
 5  O=C(Nc1n[nH]c2nc(-c3ccccc3)c(Cl)cc12)C1CC1             %                4
 6  CCC(=O)c1c(-c2ccccc2)c2cc(Cl)ccc2c(=O)n1Cc1cc(C(=O)NC2CC2)n(C)n1             %                2
 7             Nc1ncnc2c1ncn2-c1cccc2ccccc12             %                0
 8               Nc1ncnc2c1ncn2-c1ccc(Cl)cc1             %                0
 9  Cl.c1ccc(Cn2cnc3cc(Nc4ncnc5ccccc45)ccc32)cc1             %                0
10  COc1cc2ncn(-c3cc(OCc4ccc(S(C)(=O)=O)cc4)c(C(N)=O)s3)c2cc1OC             %                5
11             COc1ccc(-n2cnc3c(N)ncnc32)cc1             %                0
12    CN(C)c1cc(-c2ccc3c(N)n[nH]c3c2)nc(N)n1             %                2
13  Cl.NS(=O)(=O)c1cccc(Nc2cc(-c3ccc(F)cc3)n[nH]2)c1             %                0
14  Cc1nnc(-c2ccc(C)c(-c3ccc(C(=O)O)cc3)c2)o1             %                0
15  CCS(=O)c1ccc(-c2coc3ccc(-c4nnc(C)o4)cc23)cc1 (stereo not shown)             %               10
16  Cc1ccc(-c2ccc3c(ccc4sc5c(c43)NC[C@@H](C)N=C5N(C)C)n2)cn1             %                0
17  COc1ccc(-c2cc3c(C)nc(N)nc3n([C@H]3CC[C@H](OCCO)CC3)c2=O)cn1             %                0
18  C[C@@H]1CC[C@H](C(=O)NC2CCCCC2)CN1c1cc(-c2ccc3c(N)n[nH]c3c2)nc(N)n1             %                8
19  Cc1nnc(-c2ccc3ncn(-c4ccc(S(C)=O)cc4)c3c2)o1 (stereo not shown)             %               14

====

The reader will find reported %Inh values listed item by item below.
test system: PDGFRB; details: concentration: 1 μM, replicates: in singlicate; n = 1
Reported Property: %Inh (%)

> print(dat)
                                   compound  recorded.number
1  COc1ccc(Nc2nccc(N3CCC(NS(=O)(=O)c4ccc(NC(C)=O)cc4)C3)n2)cc1 (stereo not drawn) [GSK1379729]               15
2  FC(F)(F)c1ccc(-c2ncn(CCCN3CCOCC3)c2-c2ccncc2)cc1 [SB-217780]               32
3  O=C1NC(=O)C(c2ccccc2)=C1Nc1cccc(O)c1 [SB-390534]                0
4  COc1cc2nccc(Nc3cccc(Oc4ccccc4)c3)c2cc1OC.Cl [GW284543]               26
5  CCC(=O)c1c(-c2ccccc2)c2cc(Cl)ccc2c(=O)n1Cc1cc(S(C)(=O)=O)n(CC(N)=O)n1               10
6    Fc1cccc(CSc2nnc(-c3ccc4c(c3)CCO4)o2)c1                0
7  COc1cc2ncn(-c3cc(OCCCc4ccccc4)c(C(N)=O)s3)c2cc1OC [GSK205189]               25
8  CCn1c(-c2nonc2N)nc2ccccc21 [SB-693162/GW549034]                0
9  C[C@@H]1CC[C@H](C(=O)NC2CCCCC2)CN1c1cc(-c2ccc3c(N)n[nH]c3c2)nc(N)n1 [GSK2291363]               34

====

system: PIM1; details: concentration: 1 μM, replicates: in singlicate; n = 1
The reader will find reported %Inh values listed item by item below.
Reported Property: %Inh (%)

> print(dat)
                                   compound  reading.unit  recorded.number
1  COc1cc2ncn(-c3cc(OCc4ccc(S(C)(=O)=O)cc4)c(C(N)=O)s3)c2cc1OC             %                0
2    CN(C)c1cc(-c2ccc3c(N)n[nH]c3c2)nc(N)n1             %               14
3  COc1ccc(-c2cc3c(C)nc(N)nc3n([C@H]3CC[C@H](O)CC3)c2=O)cn1             %                5
4  Cc1nnc(-c2ccc3ncn(-c4ccc(S(C)=O)cc4)c3c2)o1 (centres unmarked)             %                4
5   Nc1n[nH]c2nnc(-c3ccccc3)c(-c3ccccc3)c12             %                0

====

system: TGFBR2; details: concentration: 1 μM, replicates: in singlicate; n = 1
Reported Property: %Inh (%)

> print(dat)
                           structure.smiles  assay.system  reported.property  reading.unit  recorded.number
1  COc1cc(OC)cc(-c2cc3cnc(N)nc3nc2NC(=O)NC(C)(C)C)c1        TGFBR2               %Inh             %                7
2  Cc1c(Cn2c(C)nn3c(=O)cc(N4CCO[C@H](C)C4)nc23)cccc1C(F)(F)F        TGFBR2               %Inh             %                4
3  CCC(=O)c1c(-c2ccccc2)c2cc(Cl)ccc2c(=O)n1Cc1cc(S(C)(=O)=O)n(CC(F)F)n1        TGFBR2               %Inh             %                0
4  COc1cc2ncn(-c3cc(OCc4ccncc4)c(C(N)=O)s3)c2cc1OC        TGFBR2               %Inh             %                0
5  COc1ccc(-c2coc3ccc(-c4nnc(SCc5cccc(C#N)c5)o4)cc23)cc1        TGFBR2               %Inh             %                0
6   Nc1n[nH]c2nnc(-c3ccccc3)c(-c3ccccc3)c12        TGFBR2               %Inh             %                0
7  O=C(Nc1n[nH]c2nc(-c3ccccc3)c(Br)cc12)C1CC1        TGFBR2               %Inh             %                6
8             COc1cccc(-n2cnc3c(N)ncnc32)c1        TGFBR2               %Inh             %                0
9           Nc1nc(N)c2nc(-c3ccccc3)[nH]c2n1        TGFBR2               %Inh             %                3

Data credit: paper PMC5540273
